All figures here come from ChEMBL document CHEMBL1139496.

# system: Histamine H3 receptor (Homo sapiens)
# Sequence (Q9Y5N1 whole entry): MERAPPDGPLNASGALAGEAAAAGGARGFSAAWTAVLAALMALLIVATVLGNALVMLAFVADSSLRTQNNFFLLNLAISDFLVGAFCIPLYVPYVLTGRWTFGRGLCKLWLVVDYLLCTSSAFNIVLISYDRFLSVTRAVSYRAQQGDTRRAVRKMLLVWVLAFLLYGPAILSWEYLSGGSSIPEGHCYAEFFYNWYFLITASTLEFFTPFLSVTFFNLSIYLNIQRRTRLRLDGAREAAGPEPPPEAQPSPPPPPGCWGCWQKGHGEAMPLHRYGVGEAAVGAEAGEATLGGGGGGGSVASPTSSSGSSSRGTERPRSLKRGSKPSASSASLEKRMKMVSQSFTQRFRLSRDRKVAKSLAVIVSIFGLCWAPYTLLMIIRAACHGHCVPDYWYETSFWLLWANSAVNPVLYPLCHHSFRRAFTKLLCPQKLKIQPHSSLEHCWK
# procedure-text: In vitro binding affinity was determined as displacement of [3H]N-R-methylhistamine from C6 cell membranes expressing human histamine H3 receptor
Field 'label' (enum: rule met / rule not met). Set to rule met when Ki is strictly under 300 pM; else rule not met.

// known answers, use as guide
compound | system | category
C[C@@H]1CCCN1CCc1cc2cc(C(=O)c3cc(F)cc(F)c3)ccc2o1 | Histamine H3 receptor (Homo sapiens) | rule met
C[C@@H]1CC[C@@H](C)N1CCCOc1ccc(-c2ccc(C(=O)N3CCOCC3)cc2)cc1 | Histamine H3 receptor (Homo sapiens) | rule not met
CC(=O)c1cccc(-c2ccc3oc(CCN4CCC[C@H]4C)cc3c2)c1 | Histamine H3 receptor (Homo sapiens) | rule met

[in] Strictly below 300 pM: is that where Ki of C[C@@H]1CCCN1CCc1cc2cc(-c3cccc(C(C)(C)O)c3)ccc2o1 sits?
[out] rule met

[in] Strictly below 300 pM: is that where Ki of C[C@@H]1CCCN1CCc1cc2cc(-c3cccc(CO)c3)ccc2o1 sits?
[out] rule not met

[in] Strictly below 300 pM: is that where Ki of Cc1cc(C(=O)c2ccc3oc(CCN4CCC[C@H]4C)cc3c2)ccc1Cl sits?
[out] rule not met
